ASSAY METHOD TEXT: Pharmacokinetics of ASP7967 in mice after oral administration (LC-MS/MS)
Format: in vivo, mice (BALB/c cAJc1)
EXPERIMENTAL SETUP: mouse, plasma, 100 mg kg^−1 oral, first sampling time point, read-out: time of maximum plasma concentration
Experimental: FIG. 10 Pharmacokinetics of ASP7967 in mice after oral administration. After oral administration at 100 mg kg^−1 to mice (BALB/c cAJc1), plasma and liver concentrations of ASP7967 were measured using liquid chromatography-tandem mass spectrometry (LC-MS/MS). ASP7967 concentrations in both plasma and liver reached maxima within the first sampling time point of 1 h and then decreased over time.
TEST READOUT: Tmax

response.value for `Fc1ccc(Nc2nc(NCc3ncccn3)nc(Nc3ccc(F)cc3)n2)cc1` (field: Tmax) = ≤ 1 h

---

SYSTEM: cpAC17-4 RNA aptamer
ASSAY METHOD TEXT: Affinity measurement by SPR, cpAC17-4 immobilized chip
EXPERIMENTAL SETUP: cpAC17-4 with 3′ poly(A) tail
TEST READOUT: pKd
# reply with the number alone; pKd is -log10 of concentration in mol/L

response.value for Fc1ccc(Nc2nc(NCc3ncccn3)nc(Nc3ccccc3)n2)cc1 [ASP2905, reference compound] (field: pKd) = 7.52

---

Tested on: a8-AC17-4-CPP riboswitch (EGFP expression in HEK293 cells)
ASSAY METHOD TEXT: Riboswitch assay in HEK293 cells, a8-AC17-4-CPP, ligand response
Type: cell-based
EXPERIMENTAL SETUP: Homo sapiens, HEK293, dose dependent response
TEST READOUT: EC50

Reported a8-AC17-4-CPP riboswitch (EGFP expression in HEK293 cells) EC50 for item `Fc1ccc(Nc2nc(NCc3ncccn3)nc(Nc3ccc(F)cc3)n2)cc1` was ~1.1 µM

---

ASSAY METHOD TEXT: Pharmacokinetics of ASP7967 in mice after oral administration (LC-MS/MS)
Assay type: in vivo, mice (BALB/c cAJc1)
EXPERIMENTAL SETUP: mouse, liver, 100 mg kg^−1 oral, first sampling time point, read-out: time of maximum liver concentration
TEST READOUT: Tmax

response.value for `Fc1ccc(Nc2nc(NCc3ncccn3)nc(Nc3ccc(F)cc3)n2)cc1` (field: Tmax) = ≤ 1 h

---

SYSTEM: AC17-4 RNA aptamer
ASSAY METHOD TEXT: Affinity measurement by ITC, AC17-4
Format: binding
EXPERIMENTAL SETUP: 37 °C
TEST READOUT: Kd (nM)
Enter your answer as a number in nM; do not include the unit.

response.value for Fc1ccc(Nc2nc(NCc3ncccn3)nc(Nc3ccccc3)n2)cc1 [ASP2905, reference compound] (field: Kd) = 48

---

ASSAY METHOD TEXT: Pharmacokinetics of ASP7967 in mice after oral administration (LC-MS/MS)
Type: in vivo, mice (BALB/c cAJc1)
EXPERIMENTAL SETUP: mouse, liver, 100 mg kg^−1 oral, read-out: concentration ratio of liver to plasma
TEST READOUT: Kp

response.value for `Fc1ccc(Nc2nc(NCc3ncccn3)nc(Nc3ccc(F)cc3)n2)cc1` (field: Kp) = 2.7 to 30.6

---

SYSTEM: AC17-4 RNA aptamer
ASSAY METHOD TEXT: Affinity measurement by SPR, AC17-4 immobilized chip
Type: binding
EXPERIMENTAL SETUP: 25 °C
TEST READOUT: pKd
# reply with the number alone; pKd is -log10 of concentration in mol/L

response.value for `Fc1ccc(Nc2nc(NCc3ncccn3)nc(Nc3ccc(F)cc3)n2)cc1` (field: pKd) = 7.92

response.value for Fc1ccc(Nc2nc(NCc3ncccn3)nc(Nc3ccccc3)n2)cc1 [ASP2905, reference compound] (field: pKd) = 8.11
